# Target: HIV-1 TAR RNA (wild-type)
# Assay Name: Direct and competition electrophoretic mobility assays, oligourea/peptide-TAR RNA complexes
# Format: binding
# Measurement Conditions: wild-type TAR RNA; multiple sets of experiments; read-out: KD (equilibrium dissociation constant) for TAR RNA

[
  {
    "Sequence Content": "GRKKRRQRRR [oligourea]",
    "Kd (nM)": 110
  }
]
